B1: LOXL2 (parent)
chain: RLLRFSSQIHNNGQSDFRPKNGRH

- Variants of: B1
- Test Method Notes: protein stability index of a GFP-peptide fusion (GPS, HEK-293T) (PSI 1-6); higher = more stable;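 further: lentivirally expressed fusions sorted by FACS into six bins by GFP to DsRed ratio, PSI derived from sequencing read proportions per bin multiplied by bin number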
- Condition Details: c terminus: a fixed tail appended

- Mutant Name: "R1I"
  protein stability index: 1.78
- Mutant Name: "P19V"
  protein stability index: 2.04
- Mutant Name: "S7N"
  protein stability index: 2.79
- Mutant Name: "R18E"
  protein stability index: 3.27
- Mutant Name: "L3Y"
  protein stability index: 3.44
- Mutant Name: "Q8Y"
  protein stability index: 2.05
- Mutant Name: "G22Y"
  protein stability index: 2.71
- Mutant Name: "N11P"
  protein stability index: 2.65
- Mutant Name: "H24S"
  protein stability index: 3
- Mutant Name: "G13T"
  protein stability index: 2.74
- Mutant Name: "I9T"
  protein stability index: 3.14
- Mutant Name: "R1M"
  protein stability index: 2.66
- Mutant Name: "G13F"
  protein stability index: 2.25
- Mutant Name: "G13S"
  protein stability index: 2.46
- Mutant Name: "D16M"
  protein stability index: 1.77
- Mutant Name: "N12Y"
  protein stability index: 2.39
- Mutant Name: "F5S"
  protein stability index: 3.81
- Mutant Name: "R1E"
  protein stability index: 2.41
- Mutant Name: "Q8E"
  protein stability index: 3.17
- Mutant Name: "R18D"
  protein stability index: 3.29
- Mutant Name: "H10E"
  protein stability index: 3.43
- Mutant Name: "S15M"
  protein stability index: 2.2
